Run description: Toxicity (LD50), Table 6
Particulars: rat, in vivo; rats, ip; read-out: LD₅₀
Measurement name: LD50 (mg/kg)

* O=C([O-])CCCO.[Na+] [NaGHB, sodium gamma-hydroxybutyrate] | 3280

###

Run description: Toxicity (LD50), Table 6
Particulars: rat, in vivo, po; rats, os; read-out: LD₅₀
Measurement name: LD50 (mg/kg)

- O=C([O-])CCCO.[Na+] [NaGHB, sodium gamma-hydroxybutyrate]: 12400
